Ref: the supplement of paper PMC13207355

# System: E28 (patient-derived glioblastoma stem cells of classical subtype)
# protocol-details: surviving fraction (nuclei count normalised to DMSO); higher = more cells surviving (less toxic)
# details: 111.1 nM; exposure time: 72 h
Counter-ions that a name gives are not always drawn.
What surviving fraction was measured for each of the following?
Please respond with just the number, no unit label.

What value of surviving fraction has been reported for the following molecule? "Cc1cccn2c(=O)c(-c3nnn[nH]3)cnc12"
0.959

What value of surviving fraction has been reported for the following molecule? C=CC(=O)Nc1cc(Nc2nccc(-c3cn(C)c4ccccc34)n2)c(OC)cc1N(C)CCN(C)C [Osimertinib mesylate]
1.01

What value of surviving fraction has been reported for the following molecule? "COc1cc2c(cc1O)CC[C@@H]1[C@@H]2CC[C@]2(C)[C@@H](O)CC[C@@H]12"
0.687

What value of surviving fraction has been reported for the following molecule? "Nc1ncnc2c1c(-c1ccc(Oc3ccccc3)cc1)cn2C1CCCC1"
0.704

What value of surviving fraction has been reported for the following molecule? "CC[C@@H]1C(=O)N(C)c2cnc(Nc3ccc(C(=O)N[C@H]4CC[C@H](N5CCN(CC6CC6)CC5)CC4)cc3OC)nc2N1C(C)C"
0.439

What value of surviving fraction has been reported for the following molecule? "C[C@H]1O[C@@H](O[C@H]2[C@@H](O)C[C@H](O[C@H]3[C@@H](O)C[C@H](O[C@H]4CC[C@@]5(C)[C@H](CC[C@@H]6[C@@H]5C[C@@H](O)[C@]5(C)[C@@H](C7=CC(=O)OC7)CC[C@]65O)C4)O[C@@H]3C)O[C@@H]2C)C[C@H](O)[C@@H]1O"
0.628

What value of surviving fraction has been reported for the following molecule? "COC(=O)Nc1nc2cc(C(=O)c3ccc(F)cc3)ccc2[nH]1"
1.02

What value of surviving fraction has been reported for the following molecule? "Cc1cc(Nc2cc(CN3CCOCC3)c3nc(C)c(Cc4ccc(Cl)cc4F)n3n2)n[nH]1"
1.02

What value of surviving fraction has been reported for the following molecule? "CCN1CCN(C(=O)Cc2ccc(Nc3ncc(F)c(Nc4ccc(C(=O)Nc5ccccc5Cl)cc4)n3)cc2)CC1"
1.01

What value of surviving fraction has been reported for the following molecule? CC(NCCC(c1ccccc1)c1ccccc1)c1ccccc1 (configuration not stated) [Fendiline hydrochloride]
1.12

What value of surviving fraction has been reported for the following molecule? "C#C[C@]1(O)CC[C@H]2[C@@H]3CCc4cc(OC5CCCC5)ccc4[C@H]3CC[C@@]21C"
1.1

What value of surviving fraction has been reported for the following molecule? CNCCCC12CCC(c3ccccc31)c1ccccc12 [Maprotiline hydrochloride]
1.21

What value of surviving fraction has been reported for the following molecule? "Nc1nc(=O)c2nc(CNc3ccc(C(=O)N[C@@H](CCC(=O)O)C(=O)O)cc3)cnc2[nH]1"
0.954

What value of surviving fraction has been reported for the following molecule? "CC[C@@]1(O)C(=O)OCc2c1cc1n(c2=O)Cc2cc3c(CN(C)C)c(O)ccc3nc2-1"
0.347

What value of surviving fraction has been reported for the following molecule? "CC(C)C[C@H](NC(=O)CNC(=O)c1cc(Cl)ccc1Cl)B(O)O"
0.149

What value of surviving fraction has been reported for the following molecule? NC1CCN(c2nc3c(cc2F)c(=O)c(C(=O)O)cn3-c2ccc(F)cc2F)C1 (configuration not stated) [Tosufloxacin hydrochloride]
1.12

What value of surviving fraction has been reported for the following molecule? "CN1C(=O)[C@@]23C[C@]4([C@]56C[C@@]78SS[C@@](CO)(C(=O)N7[C@H]5Nc5ccccc56)N(C)C8=O)c5ccccc5N[C@@H]4N2C(=O)[C@]1(CO)SS3"
0.111

What value of surviving fraction has been reported for the following molecule? CC(=O)CC(c1ccc([N+](=O)[O-])cc1)c1c(O)c2ccccc2oc1=O (configuration not stated)
0.967

What value of surviving fraction has been reported for the following molecule? "Cc1cc(CN2CCN(c3c(Br)cnc4nc(-c5ccc(N6CCN(C)CC6)cc5)[nH]c34)CC2)no1"
0.916

What value of surviving fraction has been reported for the following molecule? C/C(=C\c1csc(C)n1)[C@@H]1C[C@@H]2O[C@]2(C)CCC[C@H](C)[C@H](O)[C@@H](C)C(=O)C(C)(C)[C@@H](O)CC(=O)N1 [Ixabepilone]
0.464

What value of surviving fraction has been reported for the following molecule? CC(C)N1CCN(c2ccc(OCC3COC(Cn4cncn4)(c4ccc(Cl)cc4Cl)O3)cc2)CC1 (configuration not stated)
0.941

What value of surviving fraction has been reported for the following molecule? "CC[n+]1c(/C=C/C=C2/N(C)c3ccccc3C2(C)C)sc2ccccc21"
0.596

What value of surviving fraction has been reported for the following molecule? "COc1cc2c(cc1-c1c(C)noc1C)ncc1[nH]c(=O)n([C@H](C)c3ccccn3)c12"
0.933

What value of surviving fraction has been reported for the following molecule? CCC[C@@H]1C[C@@H](C(=O)N[C@@H]([C@H]2O[C@H](SC)[C@H](O)[C@@H](O)[C@H]2O)[C@@H](C)O)N(C)C1 [Lincomycin hydrochloride]
0.956

What value of surviving fraction has been reported for the following molecule? "C[C@@]12C(=O)OC(=O)[C@]1(C)[C@H]1CC[C@@H]2O1"
0.783

What value of surviving fraction has been reported for the following molecule? CC(=O)O[C@H]1C[C@H](O[C@H]2[C@@H](O)C[C@H](O[C@H]3[C@@H](O)C[C@H](O[C@H]4CC[C@@]5(C)[C@H](CC[C@@H]6[C@@H]5C[C@@H](O)[C@]5(C)[C@@H](C7=CC(=O)OC7)CC[C@]65O)C4)O[C@@H]3C)O[C@@H]2C)O[C@H](C)[C@H]1O[C@@H]1O[C@H](CO)[C@@H](O)[C@H](O)[C@H]1O [Lanatoside C]
0.57

What value of surviving fraction has been reported for the following molecule? COc1cccc2c1C(=O)c1c(O)c3c(c(O)c1C2=O)C[C@@](O)(C(C)=O)C[C@@H]3O[C@H]1C[C@H](N)[C@H](O)[C@H](C)O1 [Daunorubicin hydrochloride]
0.251

---

What phenotypic distance was measured for each of the following?
# Test system: E28
# protocol-details: phenotypic distance (Euclidean, principal components) from DMSO controls (arbitrary units); higher = stronger morphological change
# details: 37 nM; exposure time: 72 h

Please provide the recorded phenotypic distance for "CC[n+]1c(/C=C/C=C2/N(C)c3ccccc3C2(C)C)sc2ccccc21" , tested on E28.
1.34

Please provide the recorded phenotypic distance for "CCCSc1ccc2[nH]c(NC(=O)OC)nc2c1" , tested on E28.
0.875

Please provide the recorded phenotypic distance for "CC(=O)O[C@@]12CO[C@@H]1C[C@H](O)[C@@]1(C)C(=O)[C@H](O)C3=C(C)[C@@H](OC(=O)[C@H](O)[C@@H](NC(=O)OC(C)(C)C)c4ccccc4)C[C@@](O)([C@@H](OC(=O)c4ccccc4)[C@H]21)C3(C)C" , tested on E28.
3.71

Please provide the recorded phenotypic distance for "C[C@@]12C(=O)OC(=O)[C@]1(C)[C@H]1CC[C@@H]2O1" , tested on E28.
1.16

Please provide the recorded phenotypic distance for Clc1ccc(C(Cn2ccnc2)OCc2ccsc2Cl)c(Cl)c1 (stereo unspecified) , tested on E28.
0.417

Please provide the recorded phenotypic distance for "CC[C@@]1(O)C(=O)OCc2c1cc1n(c2=O)Cc2cc3c(CN(C)C)c(O)ccc3nc2-1" , tested on E28.
3.05

---

# System: E13 (patient-derived glioblastoma stem cells of classical subtype)
# protocol-details: phenotypic distance (Euclidean, principal components) from DMSO controls (arbitrary units); higher = stronger morphological change
# details: 111.1 nM; exposure time: 72 h
Counter-ions that a name gives are not always drawn.
readout-kind: phenotypic distance
Please respond with just the number, no unit label.

What value of phenotypic distance has been reported for the following molecule? COc1cccc2c1C(=O)c1c(O)c3c(c(O)c1C2=O)C[C@@](O)(C(C)=O)C[C@@H]3O[C@H]1C[C@H](N)[C@H](O)[C@H](C)O1 [Daunorubicin hydrochloride]
5.64

What value of phenotypic distance has been reported for the following molecule? "C[C@H](NC(=O)[C@@H](O)c1cc(F)cc(F)c1)C(=O)N[C@@H]1C(=O)N(C)c2ccccc2-c2ccccc21"
0.78

What value of phenotypic distance has been reported for the following molecule? "Cc1cc(Nc2cc(CN3CCOCC3)c3nc(C)c(Cc4ccc(Cl)cc4F)n3n2)n[nH]1"
1.47

What value of phenotypic distance has been reported for the following molecule? NC1CCN(c2nc3c(cc2F)c(=O)c(C(=O)O)cn3-c2ccc(F)cc2F)C1 (configuration not stated) [Tosufloxacin hydrochloride]
0.593

What value of phenotypic distance has been reported for the following molecule? Nc1ccn([C@@H]2O[C@H](CO)[C@@H](O)C2(F)F)c(=O)n1 [Gemcitabine HCl]
4.94

What value of phenotypic distance has been reported for the following molecule? CC(C)NCC(O)c1cc(O)cc(O)c1 (configuration not stated) [Metaproterenol sulfate, orciprenaline sulfate]
0.458

What value of phenotypic distance has been reported for the following molecule? CC(=O)CC(c1ccc([N+](=O)[O-])cc1)c1c(O)c2ccccc2oc1=O (configuration not stated)
0.663
